Tested on: Staphylococcus aureus
Assay: Antibacterial activity against methicillin-resistant Staphylococcus aureus ATCC 43300 after 24 hrs by CLSI based broth micro dilution method
Assay type: functional
outcome-measure: MIC (µg/mL)
Give just the number in µg/mL; leave the unit off.

Which MIC value is on record for C=C[C@]1(C)C[C@@H](OC(=O)CSc2ccccc2NC(=O)Cn2cc(CN3CCN(c4cccc(C)c4)CC3)nn2)[C@]2(C)[C@H](C)CC[C@]3(CCC(=O)[C@H]32)[C@@H](C)[C@@H]1O ?
1

Which MIC value is on record for C=C[C@]1(C)C[C@@H](OC(=O)CSc2ccccc2NC(=O)Cn2cc(CN3CCCCC3)nn2)[C@]2(C)[C@H](C)CC[C@]3(CCC(=O)[C@H]32)[C@@H](C)[C@@H]1O ?
0.5

Which MIC value is on record for C=C[C@]1(C)C[C@@H](OC(=O)CSc2ccccc2NC(=O)Cn2cc(CN(C)C)nn2)[C@]2(C)[C@H](C)CC[C@]3(CCC(=O)[C@H]32)[C@@H](C)[C@@H]1O ?
0.25

###

Test system: Staphylococcus aureus
Test: Antibacterial activity against methicillin-resistant Staphylococcus aureus ATCC 43300 after 24 hrs by CLSI based broth micro dilution method
Type: functional
Provide the recorded MIC for the entries that follow.
Give just the number in µg/mL; leave the unit off.

Which MIC value is on record for C=C[C@]1(C)C[C@@H](OC(=O)CSc2ccccc2NC(=O)Cn2cc(CN3CCN(c4ccc(OC)cc4)CC3)nn2)[C@]2(C)[C@H](C)CC[C@]3(CCC(=O)[C@H]32)[C@@H](C)[C@@H]1O ?
1

Which MIC value is on record for C=C[C@]1(C)C[C@@H](OC(=O)CSc2ccccc2NC(=O)Cn2cc(CN3CCN(c4ccc([N+](=O)[O-])cc4)CC3)nn2)[C@]2(C)[C@H](C)CC[C@]3(CCC(=O)[C@H]32)[C@@H](C)[C@@H]1O ?
0.125

Which MIC value is on record for C=C[C@]1(C)C[C@@H](OC(=O)CSc2ccccc2NC(=O)Cn2cc(CN3CCN(c4ccc(F)cc4)CC3)nn2)[C@]2(C)[C@H](C)CC[C@]3(CCC(=O)[C@H]32)[C@@H](C)[C@@H]1O ?
1

Which MIC value is on record for C=C[C@]1(C)C[C@@H](OC(=O)CSc2ccccc2NC(=O)Cn2cc(CN(CC)CC)nn2)[C@]2(C)[C@H](C)CC[C@]3(CCC(=O)[C@H]32)[C@@H](C)[C@@H]1O ?
0.25

Which MIC value is on record for C=C[C@]1(C)C[C@@H](OC(=O)CSc2ccccc2NC(=O)Cn2cc(CN3CCN(c4cccc(O)c4)CC3)nn2)[C@]2(C)[C@H](C)CC[C@]3(CCC(=O)[C@H]32)[C@@H](C)[C@@H]1O ?
0.25

Which MIC value is on record for C=C[C@]1(C)C[C@@H](OC(=O)CSCCN(CC)CC)[C@]2(C)[C@H](C)CC[C@]3(CCC(=O)[C@H]32)[C@@H](C)[C@@H]1O ?
0.5

###

System: Staphylococcus aureus
Test: Antibacterial activity against methicillin-resistant Staphylococcus aureus ATCC 43300 after 24 hrs by CLSI based broth micro dilution method
Format: functional
outcome-measure: log10(MIC) (log10 of the value in µg/mL)
Friendly reminder: values = log10 of MIC, unit µg/mL.

Which log10(MIC) value is on record for C=C[C@]1(C)C[C@@H](OC(=O)CSc2ccccc2NC(=O)Cn2cc(CN3CCN(c4ccccc4O)CC3)nn2)[C@]2(C)[C@H](C)CC[C@]3(CCC(=O)[C@H]32)[C@@H](C)[C@@H]1O ?
-0.30

Which log10(MIC) value is on record for C=C[C@]1(C)C[C@@H](OC(=O)CSc2ccccc2NC(=O)Cn2cc(CN3CCN(c4cccc(Cl)c4)CC3)nn2)[C@]2(C)[C@H](C)CC[C@]3(CCC(=O)[C@H]32)[C@@H](C)[C@@H]1O ?
0.30

Which log10(MIC) value is on record for C=C[C@]1(C)C[C@@H](OC(=O)CSc2ccccc2NC(=O)Cn2cc(CN3CCN(c4cccc(F)c4)CC3)nn2)[C@]2(C)[C@H](C)CC[C@]3(CCC(=O)[C@H]32)[C@@H](C)[C@@H]1O ?
0.00

Which log10(MIC) value is on record for C=C[C@]1(C)C[C@@H](OC(=O)CSc2ccccc2NC(=O)Cn2cc(CN3CCC(CCO)CC3)nn2)[C@]2(C)[C@H](C)CC[C@]3(CCC(=O)[C@H]32)[C@@H](C)[C@@H]1O ?
-0.30

Which log10(MIC) value is on record for C=C[C@]1(C)C[C@@H](OC(=O)CSc2ccccc2NC(=O)Cn2cc(CN3CCN(c4cccc([N+](=O)[O-])c4)CC3)nn2)[C@]2(C)[C@H](C)CC[C@]3(CCC(=O)[C@H]32)[C@@H](C)[C@@H]1O ?
-0.90

Which log10(MIC) value is on record for C=C[C@]1(C)C[C@@H](OC(=O)CSc2ccccc2NC(=O)Cn2cc(CN3CCN(c4ccc(C)cc4)CC3)nn2)[C@]2(C)[C@H](C)CC[C@]3(CCC(=O)[C@H]32)[C@@H](C)[C@@H]1O ?
0.00

Which log10(MIC) value is on record for C=C[C@]1(C)C[C@@H](OC(=O)CSc2ccccc2NC(=O)Cn2cc(CN3CCN(c4ccccc4C)CC3)nn2)[C@]2(C)[C@H](C)CC[C@]3(CCC(=O)[C@H]32)[C@@H](C)[C@@H]1O ?
0.00

Which log10(MIC) value is on record for C=C[C@]1(C)C[C@@H](OC(=O)CSc2ccccc2NC(=O)Cn2cc(CN3CCN(c4ccc(O)cc4)CC3)nn2)[C@]2(C)[C@H](C)CC[C@]3(CCC(=O)[C@H]32)[C@@H](C)[C@@H]1O ?
0.30

Which log10(MIC) value is on record for C=C[C@]1(C)C[C@@H](OC(=O)CSc2ccccc2NC(=O)Cn2cc(CN3CCN(c4ccccc4F)CC3)nn2)[C@]2(C)[C@H](C)CC[C@]3(CCC(=O)[C@H]32)[C@@H](C)[C@@H]1O ?
0.00

Which log10(MIC) value is on record for C=C[C@]1(C)C[C@@H](OC(=O)CSc2ccccc2NC(=O)Cn2cc(CN3CCCC3)nn2)[C@]2(C)[C@H](C)CC[C@]3(CCC(=O)[C@H]32)[C@@H](C)[C@@H]1O ?
-0.60

Which log10(MIC) value is on record for C=C[C@]1(C)C[C@@H](OC(=O)CSc2ccccc2NC(=O)Cn2cc(CN3CCN(c4ccccc4OC)CC3)nn2)[C@]2(C)[C@H](C)CC[C@]3(CCC(=O)[C@H]32)[C@@H](C)[C@@H]1O ?
-0.30

Which log10(MIC) value is on record for C=C[C@]1(C)C[C@@H](OC(=O)CSc2ccccc2NC(=O)Cn2cc(CN3CCN(c4ccc(Cl)cc4)CC3)nn2)[C@]2(C)[C@H](C)CC[C@]3(CCC(=O)[C@H]32)[C@@H](C)[C@@H]1O ?
-0.30

Which log10(MIC) value is on record for C=C[C@]1(C)C[C@@H](OC(=O)CSc2ccccc2NC(=O)Cn2cc(CN3CCN(C)CC3)nn2)[C@]2(C)[C@H](C)CC[C@]3(CCC(=O)[C@H]32)[C@@H](C)[C@@H]1O ?
-0.60

Which log10(MIC) value is on record for C=C[C@]1(C)C[C@@H](OC(=O)CSc2ccccc2NC(=O)Cn2cc(CN3CCC(O)CC3)nn2)[C@]2(C)[C@H](C)CC[C@]3(CCC(=O)[C@H]32)[C@@H](C)[C@@H]1O ?
0.00

Which log10(MIC) value is on record for C=C[C@]1(C)C[C@@H](OC(=O)CSc2ccccc2NC(=O)Cn2cc(CN3CCCC(CO)C3)nn2)[C@]2(C)[C@H](C)CC[C@]3(CCC(=O)[C@H]32)[C@@H](C)[C@@H]1O (stereo not given in full) ?
-0.30

Which log10(MIC) value is on record for C=C[C@]1(C)C[C@@H](OC(=O)CO)[C@]2(C)[C@H](C)CC[C@]3(CCC(=O)[C@H]32)[C@@H](C)[C@@H]1O [PLEUROMULIN] ?
0.30

Which log10(MIC) value is on record for C=C[C@]1(C)C[C@@H](OC(=O)CSc2ccccc2NC(=O)Cn2cc(CN3CCN(c4ccccc4Cl)CC3)nn2)[C@]2(C)[C@H](C)CC[C@]3(CCC(=O)[C@H]32)[C@@H](C)[C@@H]1O ?
0.00

Which log10(MIC) value is on record for C=C[C@]1(C)C[C@@H](OC(=O)CSc2ccccc2NC(=O)Cn2cc(CN3CCN(c4ccccc4[N+](=O)[O-])CC3)nn2)[C@]2(C)[C@H](C)CC[C@]3(CCC(=O)[C@H]32)[C@@H](C)[C@@H]1O ?
-0.30

Which log10(MIC) value is on record for C=C[C@]1(C)C[C@@H](OC(=O)CSc2ccccc2NC(=O)Cn2cc(CN3CCOCC3)nn2)[C@]2(C)[C@H](C)CC[C@]3(CCC(=O)[C@H]32)[C@@H](C)[C@@H]1O ?
-0.30

Which log10(MIC) value is on record for C=C[C@]1(C)C[C@@H](OC(=O)CSc2ccccc2NC(=O)Cn2cc(CN3CCN(c4ccccc4)CC3)nn2)[C@]2(C)[C@H](C)CC[C@]3(CCC(=O)[C@H]32)[C@@H](C)[C@@H]1O ?
-0.30
